Tested on: Neuro 2A mouse neuroblastoma cells
Assay: Cell toxicity: Neuro 2A cell viability (calcein-AM)
Format: cell-based
Conditions: Neuro 2A cells, 30 μM, 24 h exposure
Task for the reader: assign each of the following compounds its reported % of viable cells.
The response must be a number in % with no trailing unit.

Asked: Value lookup for % of viable cells; key = CSc1cc(-c2noc(-c3cc(O)c(O)c([N+](=O)[O-])c3)n2)cc[n+]1[O-] [Compound 17]
Given back: 96.0

Asked: Value lookup for % of viable cells; key = Cc1ccc(-c2noc(-c3cc(O)c(O)c([N+](=O)[O-])c3)n2)c(Br)[n+]1[O-] [Compound 36]
Given back: 76.3

Asked: Value lookup for % of viable cells; key = Cc1c(C)c(C)[n+]([O-])c(Cl)c1-c1noc(-c2cc(O)c(O)c([N+](=O)[O-])c2)n1 [Compound 41]
Given back: 95.1

Asked: Value lookup for % of viable cells; key = Cc1cc(-c2noc(-c3cc(O)c(O)c([N+](=O)[O-])c3)n2)cc(C)[n+]1[O-] [Compound 15]
Given back: 97.1

Asked: Value lookup for % of viable cells; key = Cc1c(Cl)c(C)[n+]([O-])c(Cl)c1-c1noc(-c2cc(O)c(O)c([N+](=O)[O-])c2)n1 [Compound 45]
Given back: 86.6

Asked: Value lookup for % of viable cells; key = Cc1ccc(-c2noc(-c3cc(O)c(O)c([N+](=O)[O-])c3)n2)c(Cl)[n+]1[O-] [Compound 25]
Given back: 100.2

Asked: Value lookup for % of viable cells; key = O=[N+]([O-])c1cc(-c2nc(-c3cc(Br)c[n+]([O-])c3)no2)cc(O)c1O [Compound 19]
Given back: 100.1
